- Target Entity: AuroraB (Homo sapiens)
- Construct: 20 μL of AuroraB FL H is for a final volume of 41 μL; His
- Sequence (Q96GD4 whole entry): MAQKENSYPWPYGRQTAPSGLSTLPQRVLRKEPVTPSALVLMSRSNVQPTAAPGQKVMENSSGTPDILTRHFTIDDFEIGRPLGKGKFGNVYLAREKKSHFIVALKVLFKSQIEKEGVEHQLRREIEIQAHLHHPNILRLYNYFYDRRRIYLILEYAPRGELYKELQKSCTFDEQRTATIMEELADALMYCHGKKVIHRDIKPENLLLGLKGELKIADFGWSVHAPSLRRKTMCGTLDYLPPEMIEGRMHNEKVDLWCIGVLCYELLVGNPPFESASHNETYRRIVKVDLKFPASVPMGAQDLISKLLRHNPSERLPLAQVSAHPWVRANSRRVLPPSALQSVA
- Assay Comment: AuroraB Homogeneous Time Resolved Fluorescent (HTRF) kinase assay
- Assay type: biochemical
- Test Conditions: average; read-out: AurB_IC50_IP (uM Avg)
- Protocol: AuroraB-Homogeneous Time Resolved Fluorescent (HTRF) Kinase Assay: The AuroraB HTRF assay begins with AuroraB in the presence of ATP phosphorylating the biotinylated peptide Histone H3. […] The assay is quenched and stopped with 160 μL of detection reagent. […] Added to this buffer prior to reading is Steptavidin allophycocyanin (SA-APC) at a final conc in the assay of 0.001 mg/mL, and europilated anti-phosphoHistoneH3 Ab (Eu-anti-HisH3) at a final conc of 0.064 nM. […]
Endpoint: IC50 (µM)
Reply with just the number (in µM).

{"columns": ["Compound", "Target Entity", "Unit Text", "IC50"],
 "data": [
  ["COc1cnc2c(Oc3ccc(Nc4nnc(-c5ccc(C)cn5)c5ccccc45)cc3)ccnc2c1 [compound 125]", "AuroraB (Homo sapiens)", "µM", 0.003],
  ["COc1cnc2c(Oc3ccc(Nc4nnc(-c5ccc(OC(F)(F)F)cc5)c5ccccc45)cc3)ccnc2c1 [compound 163]", "AuroraB (Homo sapiens)", "µM", 0.009],
  ["COCCOCCn1c(=O)ccc2nccc(Sc3ccc(Nc4nnc(-c5ccc(Cl)cc5)c5ccccc45)cc3)c21 [compound 476]", "AuroraB (Homo sapiens)", "µM", 0.293]
]}

Now for another entry.
Supply recorded IC50 for COc1cc(OC)c2c(Oc3ccc(Nc4nnc(-c5ccc(Cl)cc5)c5ccccc45)cc3)ccnc2c1 [compound 435] here.
0.121

====

- Target Entity: AuroraA-TPX2 (Homo sapiens)
- Construct: 20 μL of AuroraA-TPX2 KD GST for a final volume of about 41 μL; GST
- Assay Comment: AuroraA-TPX2 Homogeneous Time Resolved Fluorescent (HTRF) kinase assay
- Format: biochemical
- Test Conditions: average; read-out: AurA_IC50_IP (uM Avg)
Some compounds, each annotated with its measured IC50.
Reply with just the number (in µM).

For orientation, consider the following solved cases.
{"columns": ["Compound", "IC50, µM"],
 "data": [
  ["COc1cnc2c(Oc3ccc(Nc4nnc(-c5cc(C)ccn5)c5ccccc45)cc3)ccnc2c1 [compound 116]", 0.062],
  ["COc1cccc(-c2nnc(Nc3ccc(Oc4ccnc5cc(OC)c(OC)cc45)cc3)c3ccccc23)n1 [compound 101]", 0.01],
  ["Oc1cnc2c(Sc3ccc(Nc4nnc(-c5ccccc5)c5ccccc45)cc3)ccnc2c1 [compound 415]", 0.043],
  ["Cc1cc2nccc(Sc3ccc(Nc4nnc(-c5ccc(Cl)cn5)c5ccccc45)cc3)c2s1 [compound 560]", 0.416],
  ["COc1cc2nccc(Oc3ccc(Nc4nnc(-c5ccccc5)c5ccccc45)cc3)c2cc1OC [compound 90]", 0.019],
  ["COc1cnc2c(Nc3ccc(Nc4nnc(-c5ccccc5)c5ccccc45)cc3)ccnc2c1 [Example 40]", 0.044],
  ["COc1cc(OC)c2c(Oc3ccc(Nc4nnc(-c5cc(C)cs5)c5ccccc45)cc3)ncnc2c1 [compound 573]", 0.042],
  ["Cc1csc(-c2nnc(Nc3ccc(Oc4ccnc5ccsc45)cc3)c3ccccc23)c1 [compound 289]", 0.068]
]}

Supply recorded IC50 for COc1ccc2nccc(Sc3ccc(Nc4nnc(-c5ccc(Cl)cc5)c5ccccc45)cc3)c2n1 [compound 348] here.
0.057

Supply recorded IC50 for COCCNc1nnc(Nc2ccc(Sc3ccnc4cc(OC)cnc34)cc2)c2ccccc12 [compound 533] here.
0.045

Supply recorded IC50 for Cn1cncc1-c1cc2nccc(Oc3ccc(Nc4nnc(-c5ccc(Cl)cc5)c5ccccc45)cn3)c2s1 [compound 267] here.
0.011

====

- Target Entity: AuroraB (Homo sapiens)
- Construct: 20 μL of AuroraB FL H is for a final volume of 41 μL; His
- Assay Comment: AuroraB Homogeneous Time Resolved Fluorescent (HTRF) kinase assay
- Format: biochemical
- Test Conditions: average; read-out: AurB_IC50_IP (uM Avg)
Endpoint: IC50
Just the number plus its unit, please.

{"columns": ["Smi", "Val"],
 "data": [
  ["COc1ccc(-c2nnc(Nc3ccc(Sc4ccnc5ccoc45)cc3)c3ccccc23)cn1", "0.005 µM"]
]}

Supply recorded IC50 for `COc1cnc2c(Oc3ccc(Nc4nnc(-c5ccc(Cl)c(Cl)c5)c5ccccc45)cc3)ccnc2c1` here.
0.006 µM

Supply recorded IC50 for `CCOc1nc(-c2nnc(Nc3ccc(Oc4ccnc5cc(OC)cnc45)cc3)c3ccccc23)cs1` here.
0.003 µM

Supply recorded IC50 for `COc1cnc2c(Oc3ccc(Nc4nnc(-c5ccc(C(F)(F)F)cc5)c5ccccc45)cc3)ccnc2c1` here.
0.008 µM

Supply recorded IC50 for `COc1cnc2c(Oc3ccc(Nc4nnc(-c5ccncc5OC)c5ccccc45)cc3)ccnc2c1` here.
0.1 µM

====

Some molecules, each annotated with its measured IC50.
- Target Entity: AuroraA-TPX2 (Homo sapiens)
- Construct: 20 μL of AuroraA-TPX2 KD GST for a final volume of about 41 μL; GST
- Assay Comment: AuroraA-TPX2 Homogeneous Time Resolved Fluorescent (HTRF) kinase assay
- Assay type: biochemical
- Test Conditions: average; read-out: AurA_IC50_IP (uM Avg)
Reply with just the number (in µM).

{"columns": ["Molecule", "Endpoint", "Val"],
 "data": [
  ["Cc1csc(-c2nnc(Nc3ccc(Sc4ccnc5cc(OC(F)(F)F)ccc45)cc3)c3ccccc23)c1", "IC50", 0.277]
]}

Now for another entry.
Supply recorded IC50 for `COc1cnc2c(Oc3ccc(Nc4nnc(-c5cc(C)cc(C)c5)c5ccccc45)cc3)ccnc2c1` here.
0.017

====

- Target Entity: AuroraA-TPX2 (Homo sapiens)
- Construct: 20 μL of AuroraA-TPX2 KD GST for a final volume of about 41 μL; GST
- Assay Comment: AuroraA-TPX2 Homogeneous Time Resolved Fluorescent (HTRF) kinase assay
- Format: biochemical
- Test Conditions: average; read-out: AurA_IC50_IP (uM Avg)
// assign yes (1) if IC50 falls strictly below 0.03 µM, else no (0) (ties count as no (0))

Solved entries (count: 5):
{"columns": ["Smi", "Answer Label"],
 "data": [
  ["Clc1ccc(-c2nnc(Nc3ccc(Oc4ncnc5ccsc45)cc3)c3ccccc23)cc1", "no (0)"],
  ["Clc1ccc(-c2nnc(Nc3ccc(Sc4ccnc5ccncc45)cc3)c3ccccc23)cc1", "no (0)"],
  ["COc1cnc2c(Sc3ccc(Nc4nnc(N5CCN(CC(F)F)CC5)c5ccccc45)cc3)ccnc2c1", "no (0)"],
  ["N#Cc1ccc2c(Oc3ccc(Nc4nnc(-c5ccc(Cl)cc5)c5ccccc45)cc3)ccnc2c1", "no (0)"],
  ["COc1cnc2c(Oc3ccc(Nc4nnc(-c5cc6ccccc6n5C)c5ccccc45)cc3)ccnc2c1", "yes (1)"]
]}

API: query returns whether the compound falls strictly under 0.03 µM in IC50. Query: `COc1cnc2c(Sc3ccc(Nc4nnc(C#N)c5ccccc45)cc3)ccnc2c1`
no (0)

API: query returns whether the compound falls strictly under 0.03 µM in IC50. Query: `Oc1cc(-c2nnc(Nc3ccc(Sc4ccnc5cccnc45)cc3)c3ccccc23)ccc1Cl`
no (0)

API: query returns whether the compound falls strictly under 0.03 µM in IC50. Query: `COc1cc2c(Oc3ccc(Nc4nnc(-c5ccccc5)c5ccccc45)cc3)ccnc2cc1O`
yes (1)

====

- Target Entity: AuroraA-TPX2 (Homo sapiens, UniProt O14965)
- Construct: 20 μL of AuroraA-TPX2 KD GST for a final volume of about 41 μL; GST
- Sequence (O14965 133-383 limits assumed): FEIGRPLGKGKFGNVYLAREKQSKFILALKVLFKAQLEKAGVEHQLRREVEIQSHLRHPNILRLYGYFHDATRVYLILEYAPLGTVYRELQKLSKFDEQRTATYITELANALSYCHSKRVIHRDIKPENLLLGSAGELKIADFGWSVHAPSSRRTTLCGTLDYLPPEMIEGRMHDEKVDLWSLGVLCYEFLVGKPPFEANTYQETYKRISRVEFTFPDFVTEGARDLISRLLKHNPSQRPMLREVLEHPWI
- Sequence (Q9ULW0 1-43 partner limits assumed): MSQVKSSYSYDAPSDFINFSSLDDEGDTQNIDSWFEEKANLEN
- Assay Comment: AuroraA-TPX2 Homogeneous Time Resolved Fluorescent (HTRF) kinase assay
- Assay type: biochemical
- Test Conditions: average; read-out: AurA_IC50_IP (uM Avg)
Endpoint: IC50 (µM)
Reply with just the number (in µM).

For orientation, consider the following solved cases.
{"columns": ["Molecule", "IC50 [µM]"],
 "data": [
  ["N#Cc1cnc2c(Oc3ccc(Nc4nnc(-c5ccccc5)c5ccccc45)cc3)ccnc2c1 [Example 44]", 0.332],
  ["Brc1cnc2c(Oc3ccc(Nc4nnc(-c5ccccc5)c5ccccc45)cc3)ncnc2c1 [compound 599]", 0.794],
  ["c1ccc(-c2nnc(Nc3ccc(Oc4ccnc5ccc(N6CCOCC6)cc45)cc3)c3ccccc23)cc1 [compound 264]", 0.139],
  ["COc1cnc2c(Oc3ccc(Nc4nnc(N5CCN6CCC[C@H]6C5)c5ccccc45)cc3)ccnc2c1 [compound 97]", 0.01],
  ["CNC(=O)c1cc(Oc2ccc(Nc3nnc(-c4ccc(Cl)cc4)c4ccccc34)cc2)ccn1 [compound 361]", 0.245]
]}

# lookup: AuroraA-TPX2 (Homo sapiens, UniProt O14965) IC50, key = COc1ccc2nccc(Sc3ccc(Nc4nnc(-c5ccc(Cl)cn5)c5ccccc45)cc3)c2n1 [compound 550]
0.107

# lookup: AuroraA-TPX2 (Homo sapiens, UniProt O14965) IC50, key = Brc1ccc2nccc(Oc3ccc(Nc4nnc(-c5ccccc5)c5ccccc45)cc3)c2c1 [compound 134]
0.176

# lookup: AuroraA-TPX2 (Homo sapiens, UniProt O14965) IC50, key = COCCOc1ccc2nccc(Sc3ccc(Nc4nnc(-c5ccc(Cl)cc5)c5ccccc45)cc3)c2c1 [compound 434]
0.109

# lookup: AuroraA-TPX2 (Homo sapiens, UniProt O14965) IC50, key = COCCOc1cc(-c2nnc(Nc3ccc(Oc4ccnc5cc(OC)cnc45)cc3)c3ccccc23)ccc1C [Example 395]
0.047

# lookup: AuroraA-TPX2 (Homo sapiens, UniProt O14965) IC50, key = COc1cc2nccc(Oc3ccc(Nc4nnc(-c5cccc(C)n5)c5ccccc45)cc3)c2cn1 [compound 110]
0.043

# lookup: AuroraA-TPX2 (Homo sapiens, UniProt O14965) IC50, key = COc1cnc2c(Sc3ccc(Nc4nnc(N5CCC[C@@H](OC)C5)c5ccccc45)cc3)ccnc2c1 [compound 532]
0.061

# lookup: AuroraA-TPX2 (Homo sapiens, UniProt O14965) IC50, key = Clc1ccc(-c2nnc(Nc3ccc(Sc4ccnc5cc(Br)cnc45)cc3)c3ccccc23)cc1 [compound 324]
0.035

# lookup: AuroraA-TPX2 (Homo sapiens, UniProt O14965) IC50, key = Cn1cncc1-c1cc2nccc(Oc3ccc(Nc4nnc(-c5ccccc5)c5ccccc45)cc3)c2s1 [compound 202]
0.02

# lookup: AuroraA-TPX2 (Homo sapiens, UniProt O14965) IC50, key = C#Cc1ccc(-c2nnc(Nc3ccc(Oc4ccnc5cc(OC)cnc45)cc3)c3ccccc23)cc1 [compound 287]
0.061

# lookup: AuroraA-TPX2 (Homo sapiens, UniProt O14965) IC50, key = Cc1ccc(-c2nnc(Nc3ccc(Oc4ccnc5cc(C#N)ccc45)cc3)c3ccccc23)s1 [compound 162]
0.012
